# target desc: human intracellular domain of KDR (VEGF Receptor-2) (Homo sapiens)
# Construct: A fusion protein containing the intracellular domain (amino acids 793 to 1357) of the KDR and N-terminally tagged to GST; E. coli BL21 (pGEX-4T-1) for GST-PLCγ
# Sequence (P35968 794-1356 limits assumed): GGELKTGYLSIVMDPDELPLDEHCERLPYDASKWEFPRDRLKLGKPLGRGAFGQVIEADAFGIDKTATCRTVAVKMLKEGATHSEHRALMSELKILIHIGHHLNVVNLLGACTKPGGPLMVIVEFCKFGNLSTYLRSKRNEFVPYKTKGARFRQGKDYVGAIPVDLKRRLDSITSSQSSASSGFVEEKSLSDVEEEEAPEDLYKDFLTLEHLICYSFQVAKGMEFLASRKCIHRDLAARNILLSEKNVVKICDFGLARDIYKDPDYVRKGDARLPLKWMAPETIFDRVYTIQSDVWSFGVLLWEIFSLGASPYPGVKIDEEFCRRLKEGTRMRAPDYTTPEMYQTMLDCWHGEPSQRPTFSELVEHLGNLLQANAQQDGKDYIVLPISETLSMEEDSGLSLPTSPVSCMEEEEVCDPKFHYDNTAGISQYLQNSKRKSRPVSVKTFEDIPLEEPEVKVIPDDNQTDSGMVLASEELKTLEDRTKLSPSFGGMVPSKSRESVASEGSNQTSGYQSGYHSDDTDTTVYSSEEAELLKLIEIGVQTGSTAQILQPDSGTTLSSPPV
# protocol description: In vitro KDR kinase assay
# experimental setup: IC50 as molar concentration; GST-KDR-cyt, substrate phospholipase Cγ, ATP 100 μM, 30 min room temperature, time-resolved fluorometry
Assignment: determine reported pIC50 for the given compounds.
Numbers only, as −log10 of the molar value.

Past entries and their recorded results:
smiles_notation=COc1ccc(CONC(=O)c2cccnc2NCc2ccc(F)cc2)cc1 quantitative_readout=6.10
smiles_notation=O=C(NOCC1CC1)c1ccccc1NCc1ccncc1 quantitative_readout=7.00
smiles_notation=COc1cc(F)ccc1CONC(=O)c1ccccc1NCc1ccncc1 quantitative_readout=8.20
smiles_notation=CS(=O)(=O)Nc1cc(CNc2ccccc2C(=O)NOCC2CCCC2)ccn1 quantitative_readout=7.10
smiles_notation=O=C(NOCc1ccc(Cl)cc1Cl)c1ccccc1NCc1ccncc1 quantitative_readout=8.20

Give measured pIC50 for every item shown.
1. O=C(NOCc1c(F)cccc1Cl)c1ccccc1NCc1ccncc1
2. O=C(NOCC12CC3CC(CC(C3)C1)C2)c1ccccc1NCc1ccncc1
3. O=C(NOCc1ccc(Cl)cc1)c1ccccc1NCc1ccncc1
4. O=C(NOCc1cc(Cl)cc(Cl)c1)c1ccccc1NCc1ccncc1

A.
1: 7.60; 2: 7.00; 3: 7.30; 4: 7.20

---

# target desc: human intracellular domain of KDR (VEGF Receptor-2) (Homo sapiens)
# Construct: A fusion protein containing the intracellular domain (amino acids 793 to 1357) of the KDR and N-terminally tagged to GST; E. coli BL21 (pGEX-4T-1) for GST-PLCγ
# protocol description: In vitro KDR kinase assay
# experimental setup: IC50 as molar concentration; GST-KDR-cyt, substrate phospholipase Cγ, ATP 100 μM, 30 min room temperature, time-resolved fluorometry
value type: pIC50
Give bare numbers, as −log10 of the molar value.

Examples with their reported pIC50 follow.
compound=O=C(NOCC1CCC1)c1ccccc1NCc1ccncc1 target_desc="human intracellular domain of KDR (VEGF Receptor-2) (Homo sapiens)" value_type=pIC50 quantitative_readout=7.80
compound=O=C(NOCc1ccc2c(c1)OCO2)c1ccccc1NCc1ccncc1 target_desc="human intracellular domain of KDR (VEGF Receptor-2) (Homo sapiens)" value_type=pIC50 quantitative_readout=7.40
compound=N#Cc1ccc(CONC(=O)c2ccccc2NCc2ccncc2)c2ccccc12 target_desc="human intracellular domain of KDR (VEGF Receptor-2) (Homo sapiens)" value_type=pIC50 quantitative_readout=7.80
compound=O=C(NOCc1ccccc1OC(F)F)c1ccccc1NCc1ccncc1 target_desc="human intracellular domain of KDR (VEGF Receptor-2) (Homo sapiens)" value_type=pIC50 quantitative_readout=8.20
compound=O=C(NOCc1ccc(F)cc1)c1ccccc1NCc1ccnc(N2CCOCC2)c1 target_desc="human intracellular domain of KDR (VEGF Receptor-2) (Homo sapiens)" value_type=pIC50 quantitative_readout=7.10
compound=CCOC(=O)CNC(=O)Nc1cc(CNc2ccccc2C(=O)NOCC2CCCC2)ccn1 target_desc="human intracellular domain of KDR (VEGF Receptor-2) (Homo sapiens)" value_type=pIC50 quantitative_readout=7.20
compound=COc1ccc(CNc2ccccc2C(=O)NOCc2ccc(C#N)cc2OC)cn1 target_desc="human intracellular domain of KDR (VEGF Receptor-2) (Homo sapiens)" value_type=pIC50 quantitative_readout=7.20
compound=COC(=O)c1cccc(CONC(=O)c2ccccc2NCc2ccncc2)c1 target_desc="human intracellular domain of KDR (VEGF Receptor-2) (Homo sapiens)" value_type=pIC50 quantitative_readout=7.00

Please give pIC50 for each item listed below.
1. CCOC(=O)CNC(=O)Nc1cc(CNc2ccccc2C(=O)NOCc2ccc(C#N)cc2)ccn1
2. O=C(NOCc1cccc(I)c1)c1ccccc1NCc1ccncc1
3. O=C(NOc1ccccc1)c1ccccc1NCc1ccncc1
4. O=C(NOCc1cccc(C#CCO)c1)c1ccccc1NCc1ccncc1
5. O=C(NOCCOc1ccccc1)c1ccccc1NCc1ccncc1
6. O=C(NOCc1cccc(OC(F)(F)F)c1)c1ccccc1NCc1ccncc1
7. O=C(NOCc1ccccc1C(F)(F)F)c1ccccc1NCc1ccncc1
8. O=C(NOCc1ccc(F)cc1Cl)c1ccccc1NCc1ccncc1

A.
1. 7.30
2. 7.20
3. 6.90
4. 7.20
5. 6.00
6. 7.30
7. 7.50
8. 7.70

Give measured pIC50 for every item shown.
1. CC(ONC(=O)c1ccccc1NCc1ccncc1)C1CCCC1 (stereo not shown)
2. O=C(NOCc1ccc(F)cc1C(F)(F)F)c1ccccc1NCc1ccncc1
3. O=C(NOCc1ccc(C(F)(F)F)cc1)c1ccccc1NCc1ccncc1

A.
7.50
7.50
7.20
